// data source = patent US11351178B2

Experiment: Pharmacokinetics after single intravenous and oral administration to the mouse
Conditions: plasma, po, […]
EXPERIMENTAL_ENDPOINT: Tmax (min)
Numbers only, in min.

Problem: Find the recorded Tmax belonging to Cn1c(Sc2c(F)cc(C(=O)NO)cc2F)nnc1-c1cccs1 and report it.
Solution: 4.8

---

Molecular target: recombinant human HDAC6 (Homo sapiens, UniProt Q9UBN7)
Sequence (Q9UBN7 whole entry): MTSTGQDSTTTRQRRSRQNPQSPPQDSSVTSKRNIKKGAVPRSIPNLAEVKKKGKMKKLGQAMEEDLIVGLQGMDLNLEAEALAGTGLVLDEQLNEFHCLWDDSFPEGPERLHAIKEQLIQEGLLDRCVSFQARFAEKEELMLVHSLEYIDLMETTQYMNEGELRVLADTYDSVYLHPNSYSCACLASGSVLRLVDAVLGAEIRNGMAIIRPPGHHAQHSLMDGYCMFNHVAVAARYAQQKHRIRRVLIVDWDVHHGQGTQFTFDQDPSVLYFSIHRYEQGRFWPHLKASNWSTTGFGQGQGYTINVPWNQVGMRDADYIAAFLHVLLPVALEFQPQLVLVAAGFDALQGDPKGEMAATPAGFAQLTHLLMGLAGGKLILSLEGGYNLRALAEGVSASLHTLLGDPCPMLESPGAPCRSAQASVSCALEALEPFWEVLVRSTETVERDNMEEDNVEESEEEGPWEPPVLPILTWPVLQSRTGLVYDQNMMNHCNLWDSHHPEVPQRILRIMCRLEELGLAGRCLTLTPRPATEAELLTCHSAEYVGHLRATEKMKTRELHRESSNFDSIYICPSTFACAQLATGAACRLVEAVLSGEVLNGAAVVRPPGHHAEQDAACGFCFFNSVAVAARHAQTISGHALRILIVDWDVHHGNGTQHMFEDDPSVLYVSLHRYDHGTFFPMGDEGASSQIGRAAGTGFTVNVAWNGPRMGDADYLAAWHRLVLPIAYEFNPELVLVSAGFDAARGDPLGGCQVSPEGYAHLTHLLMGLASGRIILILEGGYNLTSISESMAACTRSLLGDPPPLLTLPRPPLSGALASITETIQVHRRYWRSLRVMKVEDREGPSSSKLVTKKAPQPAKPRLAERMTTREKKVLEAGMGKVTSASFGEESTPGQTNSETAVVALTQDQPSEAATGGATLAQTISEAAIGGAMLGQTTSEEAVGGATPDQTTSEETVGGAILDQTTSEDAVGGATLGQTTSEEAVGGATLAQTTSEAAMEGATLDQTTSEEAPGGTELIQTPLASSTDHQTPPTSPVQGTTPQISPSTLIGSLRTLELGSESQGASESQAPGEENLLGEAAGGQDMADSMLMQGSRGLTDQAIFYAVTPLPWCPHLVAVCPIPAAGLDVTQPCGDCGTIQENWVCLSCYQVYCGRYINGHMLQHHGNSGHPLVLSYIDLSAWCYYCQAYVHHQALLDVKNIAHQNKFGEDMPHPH
Assay: Enzymatic screening on recombinant human HDAC6
Assay type: biochemical
Conditions: Table 2; read-out: HDAC6 IC50
Exercise: for every item that follows, state its recorded pIC50.
Answers are plain numbers, as −log10 of the molar value.

{"SMILES": "O=C(NO)c1cc(F)c(Cc2noc(-c3ccccc3)n2)c(F)c1", "pIC50": 7.96}
{"SMILES": "O=C(NO)c1ccc(Cn2nnc(-c3ncc(C(F)(F)F)cc3N3CCOCC3)n2)cc1", "pIC50": 6.08}
{"SMILES": "Cn1c(Sc2ccc(C(=O)NO)cc2)nnc1-c1cccs1", "pIC50": 8.10}
{"SMILES": "O=C(NO)c1ccc(Sc2nnc(-c3ccccc3)n2-c2ccccc2)cc1", "pIC50": 7.25}

The record that follows has no pIC50 shown yet.
Problem: What pIC50 appears in the records for this molecule with recombinant human HDAC6 (Homo sapiens, UniProt Q9UBN7)? O=C(NO)c1ccc(Cn2nnc(-c3scc4c3OCCO4)n2)cc1
Solution: 8.52
